Target: T1, human IL-18BP (interleukin-18 binding protein, isoform A) (human, UniProt O95998 31-194)
T1 sequence: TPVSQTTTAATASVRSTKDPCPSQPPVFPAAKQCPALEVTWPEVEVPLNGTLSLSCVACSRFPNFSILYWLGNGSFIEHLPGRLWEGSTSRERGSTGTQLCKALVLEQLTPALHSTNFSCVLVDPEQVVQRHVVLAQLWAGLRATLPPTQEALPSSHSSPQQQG
Test: cell-based or functional assay
Quantity: EC50 (nM), HEK293 IL-18 Reporter Assay (SEAP)

{"columns": ["Binder", "Measured result"],
 "data": [
  ["SA35a (antibody, human IgG1, V domains shown, murine variable regions on human IgG1 kappa constant regions) VH: QVQLQQSGAELVRPGVSVKISCKGSGYTFTDYPMHWVKQSHAKSLEWIGVISTYYGDASYNQKFKGKATMTVDKSSSTAYMELARLTSEDSAIYYCARWRGSFDYWGQGTTLTVSS VL: ENVLTQSPAIMSASPGEKVTMTCRASSSVSSSYLHWYQQKSGASPKLWIYSTSNLASGVPARFSGSGSGTSYSLTISSVEAEDAATYYCQQYSGYHTFGGGTKLEIK", 21],
  ["SA33a (antibody, human IgG1, V domains shown, murine variable regions on human IgG1 kappa constant regions) VH: QVQLQQSGAELVRPGVSVKISCKGSGYTFTDYAMHWVKQSHAKSLEWIGVISTYYGDASYNQKFKGKATMTVDKSSSTAYMELARLTSEDSAIYYCARERDYYGSRLFDYWGQGTTLTVSS VL: EIVLTQSPTTMAASPGEKITITCSANSSISSNYLHWYQQKPGFSPKLLIYGTSNLASGVPARFSGSGSGTSYSLTIGTMEAEDVATYYCQQGSSIPYTFGGGTKLEIK", 0.36],
  ["SA31a (antibody, human IgG1, V domains shown, murine variable regions on human IgG1 kappa constant regions) VH: QVQLQQPGSELVRPGASVKLSCKASGYTFTSYWMHWVKQRPGQGLEWIGNIYPGSGNTIYDEKFKSKATLTVDTSSSTAYMQLSSLTSEDSAVYYCTRWDNWEGYYFDYWGQGTTLTVSS VL: DIVMTQAAFSNPVTLGTSASISCRSSKSLLHSNGITYLYWYLQKPGQSPQLLIYQMSNLASGVPDRFSSSGSGTDFTLRISRVEAEDVGVYYCAQNLELPWTFGGGTKLEIK", 2.62]
]}

// data source = patent US20250368745A1
